- Test system: SF-539 CNS
- protocol-notes: NCI tumour cell line growth inhibition, 48 h
Consider the following compounds and their measured TGI readings.

Looking up `COc1cccc(-c2cc(=O)c3cc(N4CCCCC4)ccc3[nH]2)c1` , I see its TGI listed as 0.0139 µM

// field: TGI; key: `COc1ccc2c(c1)[n+]([O-])c(C(N)=O)c(N)[n+]2[O-]` ; value = > 100 µM

---

- Test system: HL-60(TB) leukemia
- protocol-notes: NCI tumour cell line growth inhibition, 48 h
Measured TGI of individual entries

Please review the following examples before continuing.
S=P1(Oc2ccccc2)NNP2(=NP(N3CC3)(N3CC3)=NP(N3CC3)(N3CC3)=N2)NN1 (stereo not drawn) : > 100 µM
N#Cc1cccc(-n2[nH]c(=O)ccc2=O)c1 : > 100 µM

// TGI value for COc1ccc(S(=O)(=O)n2c3c(c4ccccc42)[C@@H]2[C@@H](CCCN2C(=O)CS(=O)c2ccc(C)cc2)[C@H](Cl)C3)cc1 (stereo partly drawn) : > 100 µM

---

TGI values, listed per item
- System: KM12 colon
- protocol-notes: NCI tumour cell line growth inhibition, 48 h

Worked cases, answers included:
Oc1ccc(NCn2c(=S)sc3ccccc32)cc1 : > 100 µM
CC(=O)OC1(C)N=NC2(CCCCC2)O1 (stereo not drawn) : > 100 µM

Record `NC(N)=NS(=O)(=O)c1ccc(N=Nc2c(O)c(C(=O)O)cc3ccccc23)cc1` , field TGI: > 100 µM

---

GI50 reference
- System: SK-MEL-28 melanoma
- protocol-notes: NCI tumour cell line growth inhibition, 48 h

Below are worked cases with known answers.
Cc1cc(Nc2ccc(C)c(Cl)c2)n2nc(C(F)(F)F)nc2n1 : 29.8 µM
Cc1cc2c(cc1C)[n+](=O)c(C(=O)c1ccccc1)c(C(F)F)n2[O-] : 17.8 µM
O=C(Nc1nn2c(-c3cc(C(F)(F)F)cc(C(F)(F)F)c3)nnc2s1)C1CCCC1 : 0.734 µM

# evaluate next
The reported GI50 of the compound `CCNC(=O)C#Cc1ccc2c(C(=Nc3ccc(CN(C)C)cc3)c3ccccc3)c(O)[nH]c2c1` was 0.00911 µM

---

- System: SF-539 CNS
- protocol-notes: NCI tumour cell line growth inhibition, 48 h
Listing of recorded TGI by entry.

Here is how some compounds turned out for TGI.
CCNC(=O)C#Cc1ccc2c(C(=Nc3ccc(CN(C)C)cc3)c3ccccc3)c(O)[nH]c2c1 : 1.27 µM
C[C@@]1(O)CC[C@]2(C)C3CCCC3[C@H]12 (stereo partly drawn) : > 100 µM
CN1C(=O)C(=O)N2c3ccc(Cl)cc3C3(c4ccccc4)N=CC12O3 (stereo not drawn) : 14.6 µM
COc1ccc(CN2C(=O)C(Cl)=C(Nc3cccc(C(F)(F)F)c3)C2=O)cc1 : 12 µM
NC(=S)N/N=C\c1nccc2c(C(F)(F)F)cccc12 : 0.857 µM
CC1(C)CC(c2c[nH]c3ccccc23)=CC2=Nc3ccccc3C21O (stereo not drawn) : > 100 µM

// returns TGI for `CCOC(=O)c1ccc(-c2cc(C)no2)[nH]1` with SF-539 CNS; value = > 100 µM

For the compound `CCOc1ccc(NC2=CC(=O)C(=O)c3ccccc32)cc1` , the measured TGI on SF-539 CNS was 4.18 µM

Case `CN1CCN(C(=O)COc2ccc(C34CC5CC(CC(C5)C3)C4)cc2)CC1` , SF-539 CNS, TGI recorded as 25.9 µM

// returns TGI for O=C1C(C(Nc2ccccc2)c2ccccc2)=C([O-])c2ccccc21.O=C1C(C(Nc2ccccc2)c2ccccc2)=C([O-])c2ccccc21.[Cu+2] (stereo not drawn) with SF-539 CNS; value = > 100 µM

---

In this section, each of the compounds is paired with its reported log10 TGI.
- Tested on: MDA-MB-435
- protocol-notes: NCI tumour cell line growth inhibition, 48 h
Quick note: numbers are log10 of TGI, with µM as the unit.

Cc1cc(OC(=O)Nc2cccc3ccccc23)c(C(C)C)cc1C(=S)Nc1ccccc1 : 1.53

Param item: Cc1cn(C2OC(CO[Si](C)(C)C(C)(C)C)C(N(C)O[Si](C)(C)C(C)(C)C)C2[Se]c2ccccc2)c(=O)[nH]c1=O (centres undefined) ; param system: MDA-MB-435; output log10 TGI: 1.32

Test item `O=C(Nc1cccc(C(F)(F)F)c1)Nc1cccc(C(F)(F)F)c1` ; MDA-MB-435; reported log10 TGI was 0.74

Measured log10 TGI (MDA-MB-435), entry `CC(=C(c1ccc(OCCN2CCCCC2)cc1)c1ccc(OCCN2CCCCC2)cc1)c1ccc(Cl)cc1` : -0.11

Bench note, MDA-MB-435: `CC(C)(CN1CCCCC1)C(/C=C/c1ccc(Cl)cc1)=N\NC(=O)N/N=C(/C=C/c1ccc(Cl)cc1)C(C)(C)CN1CCCCC1` , log10 TGI reads 1.13

Case `CN1CCN(c2ccc(Nc3ncc(Cl)c(NC[C@@H]4CCCO4)n3)cc2)CC1` , MDA-MB-435, log10 TGI recorded as 1.18

Entry `O=C1C(Br)=C(Br)C(=O)c2ccc(=O)ccc21` : log10 TGI on MDA-MB-435 = 1.52

I looked up `Cc1ccc(-c2nc(N3CCNCC3)c3oc(-c4ccc(C)cc4)nc3n2)cc1` and its log10 TGI for MDA-MB-435 was 0.79

The recorded log10 TGI with MDA-MB-435 for `CC(C)=C[C@H]1C[C@H](C)[C@H]2CC[C@H](C)c3c2c1c(C)c1ncoc31` was 1.59

---

Each entry below carries its recorded TGI.
- System: ACHN renal
- protocol-notes: NCI tumour cell line growth inhibition, 48 h

Example compounds with recorded TGI:
COc1ccc2c(c1)[n+]([O-])c(C(N)=O)c(N)[n+]2[O-] : > 100 µM
CC1=C/C(=N\NC(N)=S)C(C(O)(C(F)(F)F)C(F)(F)F)C(C)(C)C1 (centres undefined) : > 10 µM
Cc1nnc2ccnn2c1C : > 100 µM

The compound identified as `CN(C)c1ccc(/C=N/NC(=S)Nc2ccccc2)cc1` registered its TGI at > 100 µM

---

- System: MALME-3M melanoma
- protocol-notes: NCI tumour cell line growth inhibition, 48 h
*1 amine or outer side, *2 acyl side, *3 side chain or, on linkers, in order; H or OH if unused. Where a SMILES comes first, the peptide text is derived from it. Bridges are numbered along the chain shown (N, C = ends). Roman numbers before positions name the chains, in order. [ ]: non-standard residue; d: D form. Actinocin(9to1) = Cc1c2oc3c(C)ccc(C(=O)[*:1])c3nc-2c(C(=O)[*:2])c(N)c1=O; NMeV = CN[CH](C(=O)O)C(C)C; Sar = CNCC(=O)O
readout-name: TGI

Cc1ccc(S(=O)(=O)N2CC2CCCCC=O)cc1 (stereo not drawn) : > 100 µM
Fc1cc(-c2nnc3n2N=C(c2ccc(Cl)cc2)CS3)c(Cl)cc1Cl : 10.5 µM
CCOC(=O)c1ccc(-c2cc(C)no2)[nH]1 : > 100 µM
CCOC(=O)c1cn2c(n1)sc1cc(F)ccc12 : > 100 µM

Lookup result for `O=C1NC(=NCc2ccccc2)S/C1=C\c1ccc2ncccc2c1` ; measured TGI: > 25 µM

CN(C)C=Nc1nc(=O)n(C2CCC(CO)O2)cc1F (stereo not drawn) yielded TGI of > 100 µM

Lab book: TGI of Cc1c2oc3c(C)ccc(C(=O)NC4C(=O)NC(C(C)C)C(=O)N5CCCC5C(=O)N(C)CC(=O)N(C)C(C(C)C)C(=O)OC4C)c3nc-2c(C(=O)NC2C(=O)NC(C(C)C)C(=O)N3CCCC3C(=O)N(C)CC(=O)N(C)C(C(C)C)C(=O)OC2C)c(N)c1=O (stereo not drawn) (I: TVP[Sar][NMeV] / II: TVP[Sar][NMeV]; ester I:1-I:C, II:1-II:C; linker I:N-II:N via Actinocin(9to1); configuration not given here) noted as 0.0145 µM

TGI for CCC(C)SC1SCC2C(=O)N(C)C3(CC3C)C(=O)OCC(NC(=O)c3nc4ccccc4cc3O)C(=O)NC(C)C(=O)N(C)C1C(=O)N(C)C1(CC1C)C(=O)OCC(NC(=O)c1nc3ccccc3cc1O)C(=O)NC(C)C(=O)N2C (stereo not drawn) is 0.000422 µM

---

- Tested on: UACC-257 melanoma
- protocol-notes: NCI tumour cell line growth inhibition, 48 h
readout-name: TGI

Known results for molecules:
CC(=O)N[C@@H](Cc1ccc(OP(=O)(O)O)cc1)C(=O)N[C@H]1CCC(=O)N2CCC[C@@H](C(=O)Nc3cccc4ccccc34)N2C1=O : > 25 µM
NC(=S)N/N=C1\c2cc(Cl)ccc2-c2c1cc(Cl)cc2[N+](=O)[O-] : > 100 µM
NC(N)=NS(=O)(=O)c1ccc(N=Nc2c(O)c(C(=O)O)cc3ccccc23)cc1 : > 100 µM
Cc1ccc(-c2nc(N3CCNCC3)c3oc(-c4ccc(C)cc4)nc3n2)cc1 : > 65.9 µM
Cn1cc(-c2cc3c(N4CCN(c5ncc([C@@](C)(N)c6ccc(F)cc6)cn5)CC4)ncnn3c2)cn1 : > 100 µM

The value of TGI measured for the molecule `CN(C)c1ccc(/C=N/NC(=S)Nc2ccccc2)cc1` turned out to be > 100 µM
